- System: HOP-92
- assayInfo: NCI60 five-dose screen
- Format: cell-based
- assaySetup: Homo sapiens, HOP-92
propertyName: GI50 (µM)
Response body: numeric value in µM, unit text excluded.

Task: Which value of GI50 has been reported for CC[C@]12C=CCN3CC[C@@]4(c5ccc(OC)cc5N(C)[C@H]4[C@@](O)(C(=O)OC)[C@@H]1OC(=O)CCCC[P+](c1ccccc1)(c1ccccc1)c1ccccc1)[C@@H]32 [compound 4, reference compound] in the records?
Output: 0.268

Task: Recorded GI50 of CC[C@]12C=CCN3CC[C@@]4(c5ccc(OC)cc5N(C)[C@H]4[C@@](O)(C(=O)OC)[C@@H]1OC(=O)CCCC[P+](C1CCCCC1)(C1CCCCC1)C1CCCCC1)[C@@H]32 [10d] , please.
Output: 1.02

Task: Item `CC[C@]12C=CCN3CC[C@@]4(c5ccc(OC)cc5N(C)[C@H]4[C@@](O)(C(=O)OC)[C@@H]1OC(=O)CCC[P+](c1ccccc1)(c1ccccc1)c1ccccc1OC)[C@@H]32` has what recorded GI50?
Output: 0.172

Task: What value of measured GI50 is listed for `CC[C@]12C=CCN3CC[C@@]4(c5ccc(OC)cc5N(C)[C@H]4[C@@](O)(C(=O)OC)[C@@H]1OC(=O)CCC[P+](c1ccc(F)cc1)(c1ccc(F)cc1)c1ccc(F)cc1)[C@@H]32` ?
Output: 5.44

Task: Find the recorded GI50 belonging to `CC[C@]12C=CCN3CC[C@@]4(c5ccc(OC)cc5N(C)[C@H]4[C@@](O)(C(=O)OC)[C@@H]1OC(=O)CCC[P+](C1CCCCC1)(C1CCCCC1)C1CCCCC1)[C@@H]32` and report it.
Output: 1.01

====

- Tested on: M14
- assayInfo: NCI60 five-dose screen
- Type: cell-based
- assaySetup: Homo sapiens, M14
propertyName: GI50 (nM)
Report the value in nM with no unit label.

Task: Any idea what GI50 was measured for `CC[C@]12C=CCN3CC[C@@]4(c5ccc(OC)cc5N(C)[C@H]4[C@@](O)(C(=O)OC)[C@@H]1OC(=O)CCC[P+](C1CCCCC1)(C1CCCCC1)C1CCCCC1)[C@@H]32` ?
Output: 1920

Task: Entry `CC[C@]12C=CCN3CC[C@@]4(c5ccc(OC)cc5N(C)[C@H]4[C@@](O)(C(=O)OC)[C@@H]1OC(=O)CCC[P+](c1ccccc1)(c1ccccc1)c1ccccc1OC)[C@@H]32` has what GI50?
Output: 1060

Task: Given the entry CC[C@]12C=CCN3CC[C@@]4(c5ccc(OC)cc5N(C)[C@H]4[C@@](O)(C(=O)OC)[C@@H]1OC(=O)CCCC[P+](C1CCCCC1)(C1CCCCC1)C1CCCCC1)[C@@H]32 [10d] , report its measured GI50.
Output: 2200

====

Task for the reader: assign each of the following compounds its reported activity at 10 µM.
- Tested on: SN12C
- assayInfo: NCI60 one-dose screen
- Format: cell-based
- assaySetup: Homo sapiens, 10 μM, one-dose, read-out: Growth percent
Hey, just the number and the unit after it is fine.

Task: Returns the measured activity at 10 µM for the input compound. Input: CC[C@]12C=CCN3CC[C@@]4(c5ccc(OC)cc5N(C)[C@H]4[C@@](O)(C(=O)OC)[C@@H]1OC(=O)CCC[P+](c1cc(C)c(OC)c(C)c1)(c1cc(C)c(OC)c(C)c1)c1cc(C)c(OC)c(C)c1)[C@@H]32 [9e]
Output: -96.7%

Task: Name the recorded activity at 10 µM for CC[C@]12C=CCN3CC[C@@]4(c5ccc(OC)cc5N(C)[C@H]4[C@@](O)(C(=O)OC)[C@@H]1OC(=O)CCC[P+](c1ccccc1)(c1ccccc1)c1ccccc1)[C@@H]32 [compound 3, reference compound] .
Output: 2.73%

Task: Quick one: activity at 10 µM of CC[C@]12C=CCN3CC[C@@]4(c5ccc(OC)cc5N(C)[C@H]4[C@@](O)(C(=O)OC)[C@@H]1OC(=O)CCC[P+](c1ccc(OC)cc1)(c1ccc(OC)cc1)c1ccc(OC)cc1)[C@@H]32 [9b] ?
Output: -93.4%

Task: Fill in: activity at 10 µM of CCC12C=CCN3CCC4(c5ccc(OC)cc5N(C)C4C(O)(C(=O)OC)C1OC(=O)c1ccc(C[P+](c4ccccc4)(c4ccccc4)c4ccccc4)cc1)C32 (centres unmarked) [compound 12] is ___
Output: -46.5%

Task: Please look up its activity at 10 µM: CC[C@]12C=CCN3CC[C@@]4(c5ccc(OC)cc5N(C)[C@H]4[C@@](O)(C(=O)OC)[C@@H]1OC(=O)CCCC[P+](c1ccc(F)cc1)(c1ccc(F)cc1)c1ccc(F)cc1)[C@@H]32 [10c]
Output: 10.6%

====

Exercise: for every item that follows, state its recorded activity at 10 µM.
- System: M14
- assayInfo: NCI60 one-dose screen
- Type: cell-based
- assaySetup: Homo sapiens, M14, read-out: Growth percent
Respond numerically; units are % and should not be typed.

Task: Reported activity at 10 µM for CC[C@]12C=CCN3CC[C@@]4(c5ccc(OC)cc5N(C)[C@H]4[C@@](O)(C(=O)OC)[C@@H]1OC(=O)CCCC[P+](c1ccc(C)cc1)(c1ccc(C)cc1)c1ccc(C)cc1)[C@@H]32 [10a] : what is it?
Output: -88.3

Task: Find the recorded activity at 10 µM belonging to `CC[C@]12C=CCN3CC[C@@]4(c5ccc(OC)cc5N(C)[C@H]4[C@@](O)(C(=O)OC)[C@@H]1OC(=O)CCC[P+](c1ccccc1)(c1ccccc1)c1ccccc1OC)[C@@H]32` and report it.
Output: -82.9

Task: Item under review: CCC12C=CCN3CCC4(c5ccc(OC)cc5N(C)C4C(O)(C(=O)OC)C1OC(=O)CCC[P+](c1ccc(C)cc1)(c1ccc(C)cc1)c1ccc(C)cc1)C32 (stereo not shown) . Reported activity at 10 µM?
Output: -85.3

Task: Value lookup for activity at 10 µM; key = CC[C@]12C=CCN3CC[C@@]4(c5ccc(OC)cc5N(C)[C@H]4[C@@](O)(C(=O)OC)[C@@H]1OC(=O)CCCC[P+](c1ccccc1)(c1ccccc1)c1ccccc1)[C@@H]32 [compound 4, reference compound]
Output: 29.4

====

- System: T-47D
- assayInfo: NCI60 five-dose screen
- Type: cell-based
- assaySetup: Homo sapiens, T47D
Hi there, I'd appreciate the recorded GI50 for every entry that follows.
Report the figure in nM without appending any unit label.

Task: Param readout= GI50; system= T-47D; entry= CC[C@]12C=CCN3CC[C@@]4(c5ccc(OC)cc5N(C)[C@H]4[C@@](O)(C(=O)OC)[C@@H]1OC(=O)CCCC[P+](C1CCCCC1)(C1CCCCC1)C1CCCCC1)[C@@H]32 [10d] ; returns value.
Output: 920

Task: So what GI50 did CC[C@]12C=CCN3CC[C@@]4(c5ccc(OC)cc5N(C)[C@H]4[C@@](O)(C(=O)OC)[C@@H]1OC(=O)CCCC[P+](c1ccc(OC)cc1)(c1ccc(OC)cc1)c1ccc(OC)cc1)[C@@H]32 [10b] get with T-47D?
Output: 383

Task: Quick check: GI50 on T-47D, item CCC12C=CCN3CCC4(c5ccc(OC)cc5N(C)C4C(O)(C(=O)OC)C1OC(=O)CCC[P+](c1ccc(C)cc1)(c1ccc(C)cc1)c1ccc(C)cc1)C32 (stereo not drawn) ?
Output: 314

====

- Tested on: CAKI-1
- assayInfo: NCI60 one-dose screen
- Assay type: cell-based
- assaySetup: Homo sapiens, CAKI-1, read-out: Growth percent
For each of the molecules below, state its activity at 10 µM.
Your answer is read as %, so omit the unit and give the number.

Task: # activity at 10 µM lookup, item CC[C@]12C=CCN3CC[C@@]4(c5ccc(OC)cc5N(C)[C@H]4[C@@](O)(C(=O)OC)[C@@H]1OC(=O)CCCC[P+](c1ccc(OC)cc1)(c1ccc(OC)cc1)c1ccc(OC)cc1)[C@@H]32 [10b]
Output: -78.5

Task: What value of activity at 10 µM has been reported for the following molecule? CC[C@]12C=CCN3CC[C@@]4(c5ccc(OC)cc5N(C)[C@H]4[C@@](O)(C(=O)OC)[C@@H]1OC(=O)CCCC[P+](c1ccc(C)cc1)(c1ccc(C)cc1)c1ccc(C)cc1)[C@@H]32 [10a]
Output: -95.2

Task: // lookup activity at 10 µM for `CC[C@]12C=CCN3CC[C@@]4(c5ccc(OC)cc5N(C)[C@H]4[C@@](O)(C(=O)OC)[C@@H]1OC(=O)CCC[P+](c1ccc(F)cc1)(c1ccc(F)cc1)c1ccc(F)cc1)[C@@H]32`
Output: 73.1

Task: Fill in: activity at 10 µM of `CC[C@]12C=CCN3CC[C@@]4(c5ccc(OC)cc5N(C)[C@H]4[C@@](O)(C(=O)OC)[C@@H]1OC(=O)CCC[P+](C1CCCCC1)(C1CCCCC1)C1CCCCC1)[C@@H]32` is ___
Output: -8.49

Task: Sample CCC12C=CCN3CC[C@@]4(c5ccc(OC)cc5N(C)[C@H]4[C@@](O)(C(=O)OC)[C@@H]1OC(C)=O)[C@@H]32 (stereo partly drawn) — what was its activity at 10 µM?
Output: 97.5

Task: Form field: reported activity at 10 µM of `CC[C@]12C=CCN3CC[C@@]4(c5ccc(OC)cc5N(C)[C@H]4[C@@](O)(C(=O)OC)[C@@H]1OC(=O)CCC[P+](c1ccccc1)(c1ccccc1)c1ccccc1OC)[C@@H]32`
Output: -40.2
